Assay target: T1, transferrin receptor 1 (TfR1), human (human, UniProt P02786 1-760)
T1 construct: whole, on cells; always tested on cells; also called human TfR1; native TfR1
T1 sequence (P02786 whole entry): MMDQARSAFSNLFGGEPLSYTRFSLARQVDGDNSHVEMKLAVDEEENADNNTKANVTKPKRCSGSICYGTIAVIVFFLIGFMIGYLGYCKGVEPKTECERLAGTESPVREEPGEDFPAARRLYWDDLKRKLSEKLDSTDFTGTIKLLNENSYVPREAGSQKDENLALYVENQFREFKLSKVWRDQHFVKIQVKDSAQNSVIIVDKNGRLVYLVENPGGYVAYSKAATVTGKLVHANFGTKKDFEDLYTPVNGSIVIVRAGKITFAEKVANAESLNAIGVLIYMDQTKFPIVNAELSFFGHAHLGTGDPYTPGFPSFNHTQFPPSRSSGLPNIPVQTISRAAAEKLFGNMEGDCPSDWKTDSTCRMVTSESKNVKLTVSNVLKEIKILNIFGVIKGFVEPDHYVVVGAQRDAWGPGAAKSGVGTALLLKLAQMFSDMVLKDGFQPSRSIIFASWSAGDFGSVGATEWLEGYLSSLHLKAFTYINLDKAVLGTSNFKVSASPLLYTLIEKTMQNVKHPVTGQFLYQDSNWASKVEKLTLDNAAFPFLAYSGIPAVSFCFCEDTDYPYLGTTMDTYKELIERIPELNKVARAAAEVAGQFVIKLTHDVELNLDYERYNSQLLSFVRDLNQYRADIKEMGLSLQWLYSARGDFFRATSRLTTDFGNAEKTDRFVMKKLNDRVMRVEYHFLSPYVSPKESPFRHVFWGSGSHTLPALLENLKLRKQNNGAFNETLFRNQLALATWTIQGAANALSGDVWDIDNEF
Method summary: FACS on human Raji cells, anti-human IgG1-FITC

Binder	binding result
F12 scFv2-Fc (Fc fusion, Bivalent (scFv)2-Fc; also called F12-Fc; not shown: Fc fragment of human IgG1 (pFUSE-hFc2(IL2ss) vector)) QVQLQESGGGLVQPGGSLRLSCAASGFSFNTYTMHWVRQAPGKGLEWVADIAYDGSTKYYADSVKGRFTISRDNAKNSLYLQMNSLRAEDTAVYYCARDAVAGEGYFDLWGRGTLVTVSSGGGGSGGGGSGGGGSQSALTQDPAVSVALGQTVRITCQGDSLRSYYASWYQQLPGTAPKLLIYRNNQRPSGVPDRFSGSKSGTSASLAISGLRSEDEADYYCAAWDDSLSAWVFGGGTKLTVLGA	binds

Attribution: patent US20230183379A1
